Can you tell me bioavailability for the items I'm about to list?
Experiment: Absolute bioavailability in human
Assay type: ADME, organism-based
Conditions: in vivo
The figure you give is taken to be in %; do not add the unit.

QUERY: Reported bioavailability, compound NC(CO)C(=O)NNCc1ccc(O)c(O)c1O (stereo not given) [BENSERAZIDE] : ____
RESULT: 70

QUERY: Would you kindly repeat that for NS(=O)(=O)c1cc2c(cc1Cl)NCNS2(=O)=O [HYDROCHLOROTHIAZIDE] ?
RESULT: 55

QUERY: Field entry: NC(=O)N1c2ccccc2C=Cc2ccccc21 [CARBAMAZEPINE]
RESULT: 90

QUERY: And then CNCCCN1c2ccccc2CCc2ccccc21 , what is it?
RESULT: 70

QUERY: Check CC1=C(/C=C/C(C)=C/C=C/C(C)=C/C(=O)O)C(C)(C)CCC1 too.
RESULT: 90

QUERY: One more compound: CC(C)n1c(/C=C/C(O)CC(O)CC(=O)O)c(-c2ccc(F)cc2)c2ccccc21 (stereo not given)
RESULT: 95

QUERY: Now the same for CNC(=C[N+](=O)[O-])NCCSCc1ccc(CN(C)C)o1
RESULT: 50

QUERY: Now the same for O=C(O)c1ccccc1O
RESULT: 100

QUERY: Now the same for Cn1c(=O)c2c(ncn2C)n(C)c1=O
RESULT: 98

QUERY: What do you get for CC(=O)Nc1ccc(O)cc1 ?
RESULT: 85

---

Assay: Dissociation constant, pKa of the compound
Assay type: physicochemical
REPORTED_PROPERTY: pKa
# respond with the number and nothing more

QUERY: Any idea what its pKa is? The molecule is C[C@](N)(Cc1ccc(O)c(O)c1)C(=O)O
RESULT: 2.21

QUERY: Would you kindly repeat that for CCCCc1nc(Cl)c(CO)n1Cc1ccc(-c2ccccc2-c2nn[nH]n2)cc1 ?
RESULT: 2.95

QUERY: What about this molecule? CN/C(=N/CCSCc1nc[nH]c1C)NC#N
RESULT: 6.76

QUERY: Further, for CCOC(=O)[C@H](CCc1ccccc1)N[C@@H](C)C(=O)N1CCC[C@H]1C(=O)O ?
RESULT: 2.92

QUERY: Follow-up item: N[C@@H](Cc1ccc(O)c(O)c1)C(=O)O
RESULT: 2.21

QUERY: Note, next up: NCCCC[C@H](N[C@@H](CCc1ccccc1)C(=O)O)C(=O)N1CCC[C@H]1C(=O)O [LISINOPRIL ANHYDROUS]
RESULT: 3.16

QUERY: // repeat for C[C@H](N[C@@H](CCc1ccccc1)C(=O)O)C(=O)N1CCC[C@H]1C(=O)O [ENALAPRILAT ANHYDROUS] and report
RESULT: 3.2

QUERY: Next molecule up: N[C@@H](Cc1ccccc1)C(=O)O
RESULT: 2.2

QUERY: Also check CC(C)(C)NCC(O)c1cc(O)cc(O)c1 (stereo not drawn)
RESULT: 8.67

QUERY: Repeat with CNC(=C[N+](=O)[O-])NCCSCc1ccc(CN(C)C)o1
RESULT: 2.11

QUERY: Now consider N=C(N)NCCCNC(=O)[C@@H]1CCCCN1C(=O)[C@@H](CC1CCCCC1)NCC(=O)O and answer again.
RESULT: 1.6

QUERY: Please do the same for CC(C)C[C@H](N)C(=O)O as well.
RESULT: 2.38

QUERY: Queued: CC(C)[C@H](N)C(=O)OCCOCn1cnc2c(=O)[nH]c(N)nc21
RESULT: 7.4

QUERY: Also check CN1CC(=O)NC1=N
RESULT: 4.66

QUERY: Same thing, different molecule: Cc1cc(=O)n(-c2ccccc2)n1C [ANTIPYRINE]
RESULT: 1.3

QUERY: Item: NC(CO)C(=O)NNCc1ccc(O)c(O)c1O (stereo not drawn) [BENSERAZIDE]
RESULT: 6.19

QUERY: And what about the molecule CC(=O)Nc1ccc(O)cc1 ?
RESULT: 9.63

QUERY: Next: O=c1c(O[C@@H]2O[C@H](CO)[C@@H](O)[C@H](O)[C@H]2O)c(-c2ccc(O[C@@H]3O[C@H](CO)[C@@H](O)[C@H](O)[C@H]3O)c(O)c2)oc2cc(O)cc(O)c12
RESULT: 6.9
